Value source: patent US6462037B1

Consider the following molecules; for each one, report its melting point.

# example entries with known answers
CC(C)CC1(C(F)(F)F)N=CC(=O)Nc2ccc(Cl)cc21 (stereo not shown) [compound 169]	118 to 119 °C
O=C1CN(Cc2cccc(F)c2)C(C(F)(F)F)c2cc(Cl)ccc2N1 (stereo not shown) [compound 142]	181 to 182 °C

Dear colleague, could you please provide melting point for the molecules listed below?
1. Cc1ncc(CN2CC(=O)Nc3ccc(Cl)cc3C2C(F)(F)F)s1 (stereo not shown) [compound 103]
2. COc1ccc(OC)c(CN2CC(=O)Nc3ccc(Cl)cc3C2C(F)(F)F)c1F (stereo not shown) [compound 145]
3. O=C1CN(Cc2c(F)cccc2Cl)C(C(F)(F)F)c2cc(Cl)ccc2N1 (stereo not shown) [compound 115]
4. O=C1CN(Cc2cc(Br)cs2)C(C(F)(F)F)c2cc(Cl)ccc2N1 (stereo not shown) [compound 150]
5. O=C1CN(Cc2ccsc2)C(C(F)(F)F)c2cc(Cl)ccc2N1 (stereo not shown) [compound 123]
6. Cc1ccc(CN2CC(=O)Nc3ccc(Cl)cc3C2C(F)(F)F)nc1 (stereo not shown) [compound 104]

Completion:
1. 196 to 220 °C
2. 121 to 122 °C
3. 171 to 172 °C
4. 173 to 174 °C
5. 148 to 150 °C
6. 200 to 205 °C

Dear colleague, could you please provide melting point for the molecules listed below?
1. COc1cccc(CN2CC(=O)Nc3ccc(Cl)cc3C2C(F)(F)F)c1 (stereo not shown) [compound 118]
2. O=C1C=NC(CCC(F)(F)F)(C(F)(F)F)c2c(ccc(F)c2F)N1 (stereo not shown) [compound 201]
3. O=C1C=NC(CCCC(F)(F)F)(C(F)(F)F)c2cc(Cl)ccc2N1 (stereo not shown) [compound 197]
4. O=C1CN(Cc2ccco2)C(C(F)(F)F)c2cc(Cl)ccc2N1 (stereo not shown) [compound 124]
5. CC(C)CCC1(C(F)(F)F)N=CC(=O)Nc2ccc(Cl)cc21 (stereo not shown) [compound 189]

Completion:
1. 171 to 172 °C
2. 160 to 163 °C
3. 178 to 180 °C
4. 143 to 145 °C
5. 151 to 153 °C

Dear colleague, could you please provide melting point for the molecules listed below?
1. O=C1C=N[C@](C#CC2CC2)(C(F)(F)F)c2cc(Cl)ccc2N1 [compound 174]
2. O=C1C=NC(/C=C\C2CC2)(C(F)(F)F)c2cc(F)ccc2N1 (stereo not shown) [compound 200]
3. CCCCN1CC(=O)Nc2ccc(Cl)cc2C1C(F)(F)F (stereo not shown) [compound 100]
4. CCCCCC1(C(F)(F)F)N=C(C)C(=O)Nc2ccccc21 (stereo not shown) [compound 181]
5. O=C1CN(Cc2cc(F)ccc2F)C(C(F)(F)F)c2cc(Cl)ccc2N1 (stereo not shown) [compound 148]

Completion:
1. 104 to 105 °C
2. 158 to 160 °C
3. 89 to 92 °C
4. 139 to 140 °C
5. 134 to 135 °C

Prompt: I'd like to know its melting point. The molecule in question is CCCCN1CC(=O)Nc2ccc(Cl)cc2C1(C#CC(C)C)C(F)(F)F (stereo not shown) [compound 136]
Completion: 123 to 125 °C

----------
measured_endpoint: melting point

CCC(C)CCN1CC(=O)Nc2ccc(Cl)cc2C1C(F)(F)F (centres unmarked) [compound 131]	113 to 116 °C
CCCCC1(C(F)(F)F)N=CC(=O)Nc2ccc(Cl)cc21 (centres unmarked) [compound 203]	174 to 176 °C
O=C1CN(Cc2c(F)cccc2F)C(C(F)(F)F)c2cc(Cl)ccc2N1 (centres unmarked)	173 to 174 °C
CC(C)C#CC1(C(F)(F)F)c2c(ccc(F)c2F)NC(=O)CN1O (centres unmarked)	174 to 176 °C
O=C1C=NC(CCC2CC2)(C(F)(F)F)c2cc(Cl)ccc2N1 (centres unmarked)	152 to 155 °C

Dear colleague, could you please provide melting point for the compounds listed below?
1. COc1ccccc1CN1CC(=O)Nc2ccc(Cl)cc2C1C(F)(F)F (centres unmarked)
2. COc1cccc(OC)c1CN1CC(=O)Nc2ccc(Cl)cc2C1C(F)(F)F (centres unmarked)
3. O=C1C=NC(Cc2ccccc2)(C(F)(F)F)c2cc(Cl)ccc2N1 (centres unmarked) [compound 168]
4. O=C1CN(Cc2cccc(Cl)n2)C(C(F)(F)F)c2cc(Cl)ccc2N1 (centres unmarked)
5. O=C1CN(CCCc2ccccc2)C(C(F)(F)F)c2cc(Cl)ccc2N1 (centres unmarked)

Completion:
1. 145 to 146 °C
2. 128 to 129 °C
3. 160 to 161 °C
4. 184 to 186 °C
5. 89 to 91 °C

Dear colleague, could you please provide melting point for the compounds listed below?
1. O=C1C=NC(CC2CC2)(C(F)(F)F)c2cc(Cl)ccc2N1 (centres unmarked)
2. O=C1C=NC(Cc2ccccc2)(C(F)(F)F)c2cc(Cl)ccc2N1 (centres unmarked) [compound 190]
3. Cc1cccc(F)c1CN1CC(=O)Nc2ccc(Cl)cc2C1C(F)(F)F (centres unmarked)
4. O=C1C=NC(/C=C/C2CC2)(C(F)(F)F)c2cc(Cl)ccc2N1 (centres unmarked)
5. O=C1CN(CCc2ccccc2Cl)C(C(F)(F)F)c2cc(Cl)ccc2N1 (centres unmarked)
6. O=C1CN(CC#Cc2ccccc2)C(C(F)(F)F)c2cc(Cl)ccc2N1 (centres unmarked)

Completion:
["105 to 108 °C", "160 to 162 °C", "196 to 197 °C", "150 to 153 °C", "161 to 162 °C", "138 to 139 °C"]

Dear colleague, could you please provide melting point for the compounds listed below?
1. O=C1C=NC(C#Cc2cccs2)(C(F)(F)F)c2cc(Cl)ccc2N1 (centres unmarked)
2. CCC#CCN1CC(=O)Nc2ccc(Cl)cc2C1C(F)(F)F (centres unmarked) [compound 149]

Completion:
1: 196 to 198 °C; 2: 123 to 124 °C

Dear colleague, could you please provide melting point for the compounds listed below?
1. CCC(C)CCN1CC(=O)Nc2ccc(Cl)cc2C1C(F)(F)F (centres unmarked) [compound 125]
2. O=C1CN(Cc2cccc(F)c2F)C(C(F)(F)F)c2cc(Cl)ccc2N1 (centres unmarked)

Completion:
1. 66 to 67 °C
2. 182 to 183 °C

Dear colleague, could you please provide melting point for the compounds listed below?
1. CCCCCN1CC(=O)Nc2ccc(Cl)cc2C1C(F)(F)F (centres unmarked) [compound 108]
2. CCCN1CC(=O)Nc2ccc(Cl)cc2C1C(F)(F)F (centres unmarked)
3. O=C1CN(CCc2ccccc2I)C(C(F)(F)F)c2cc(Cl)ccc2N1 (centres unmarked)

Completion:
1: 114 to 115 °C; 2: 123 to 124 °C; 3: 172 to 173 °C

Dear colleague, could you please provide melting point for the compounds listed below?
1. C#CCN1CC(=O)Nc2ccc(Cl)cc2C1C(F)(F)F (centres unmarked)
2. CCC=CCN1CC(=O)Nc2ccc(Cl)cc2C1C(F)(F)F (centres unmarked)
3. CC(C)CCN1CC(=O)Nc2ccc(Cl)cc2C1C(F)(F)F (centres unmarked)
4. CCCCC1(C(F)(F)F)N=CC(=O)Nc2ccc(Cl)cc21 (centres unmarked) [compound 128]
5. CN1CC(=O)Nc2ccc(Cl)cc2C1(C#CC1CC1)C(F)(F)F (centres unmarked)
6. COc1cccc(F)c1CN1CC(=O)Nc2ccc(F)c(F)c2C1C(F)(F)F (centres unmarked)
7. CCCC#CCN1CC(=O)Nc2ccc(Cl)cc2C1C(F)(F)F (centres unmarked)

Completion:
181 to 182 °C
83 to 84 °C
68 to 70 °C
121 to 123 °C
135 to 136 °C
168 to 170 °C
96 to 98 °C

Dear colleague, could you please provide melting point for the compounds listed below?
1. COc1ccc(F)c(F)c1CN1CC(=O)Nc2ccc(Cl)cc2C1C(F)(F)F (centres unmarked)
2. O=C1CN(C(=O)c2ccccc2)C(C(F)(F)F)c2cc(Cl)ccc2N1 (centres unmarked)

Completion:
1: 170 to 171 °C; 2: 257 to 258 °C
